Source listed as patent US10034886B2.

Target: GLP-1R (Homo sapiens, UniProt P43220)
Construct: host or cells: GLP-1R CRE-bla CHO-K1 cells
Sequence (P43220 24-463): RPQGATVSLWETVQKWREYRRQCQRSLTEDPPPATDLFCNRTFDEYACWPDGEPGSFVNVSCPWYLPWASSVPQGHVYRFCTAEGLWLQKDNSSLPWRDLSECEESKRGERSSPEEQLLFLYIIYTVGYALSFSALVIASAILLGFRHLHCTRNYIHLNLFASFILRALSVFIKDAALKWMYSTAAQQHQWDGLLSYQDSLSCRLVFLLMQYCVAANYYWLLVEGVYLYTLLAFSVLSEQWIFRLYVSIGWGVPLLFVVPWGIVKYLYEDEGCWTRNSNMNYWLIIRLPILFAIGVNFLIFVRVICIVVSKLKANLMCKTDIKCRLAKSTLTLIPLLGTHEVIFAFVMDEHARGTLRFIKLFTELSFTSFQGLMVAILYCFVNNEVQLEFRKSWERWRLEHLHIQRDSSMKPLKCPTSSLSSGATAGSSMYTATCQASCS
Sequence (P01275 100-127 partner limits assumed): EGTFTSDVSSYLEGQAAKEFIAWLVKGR
Assay: EC20 GLP-1(9-36) PAM cAMP assay: dose response of compound in the presence of fixed concentration of GLP-1(9-36)
Format: cell-based
Details: dose response of compound in presence of fixed concentration of GLP-1(9-36), GLP-1R CRE-bla CHO-K1 cells, read-out: EC20 GLP-1(9-36) PAM EC50
Excerpt: EC20 GLP-1(9-36) PAM cAMP Assay: Dose Response of Compound in the Presence of Fixed Concentration of GLP-1 (9-36). […]
Value type: EC50

[[record]]
molecule = "CCCCCCCOc1ccc(-c2cnc(-c3ccc(CC(NC(=O)c4ccc(C(C)(C)C)s4)C(=O)N[C@@H](CCSC)C(=O)O)cc3)nc2)cc1 (stereo partly shown)"
reported_measurement = "< 800 nM"

[[record]]
molecule = "CCCCCCCOc1ccc(-c2cnc(-c3ccc(C[C@H](NC(=O)c4ccc(OC(C)C)cc4)C(=O)N4CC[C@H](C(=O)O)C4)cc3)nc2)cc1"
reported_measurement = "2500 to 5000 nM"

[[record]]
molecule = "CCCCCCCOc1ccc(-c2cnc(-c3ccc(C[C@H](NC(=O)c4ccc(C(C)(C)C)cc4)C(=O)NC(CC(=O)O)c4cccc(O)c4)cc3)nc2)cc1 (stereo partly shown)"
reported_measurement = "5000 to 10000 nM"

[[record]]
molecule = "CCCCCCCOc1ccc(-c2cnc(-c3ccc(C[C@H](NC(=O)c4cnc(C(C)(C)C)nc4)C(=O)N4CC(C(=O)O)C4)cc3)nc2)cc1"
reported_measurement = "800 to 2500 nM"

[[record]]
molecule = "CCCCCCCOc1ccc(-c2cnc(-c3ccc(C[C@H](NC(=O)c4ccc(C(C)(C)C)cc4)C(=O)NCC(Cc4cccnc4)C(=O)O)cc3)nc2)cc1 (stereo partly shown)"
reported_measurement = "< 800 nM"

[[record]]
molecule = "CCCCCCCOc1ccc(-c2cnc(-c3ccc(C[C@H](NC(=O)c4ccc(C(C)(C)C)cc4)C(=O)NCC(O)C(=O)O)cc3)nc2)cc1 (stereo partly shown)"
reported_measurement = "< 800 nM"

[[record]]
molecule = "CC(C)(C)c1ccc(C(=O)N[C@@H](Cc2ccc(-c3ncc(-c4ccc(-c5ccccc5F)cc4F)cn3)cc2)C(=O)N2CC(C(=O)O)C2)s1"
reported_measurement = "< 800 nM"

[[record]]
molecule = "CCCCCCCOc1ccc(-c2cnc(-c3ccc(C[C@H](NC(=O)c4ccc(C(C)(C)C)s4)C(=O)N[C@@H](CC(=O)NCC(=O)O)C(=O)O)cc3)nc2)cc1"
reported_measurement = "< 800 nM"

[[record]]
molecule = "CCCCCCCOc1ccc(-c2cnc(-c3ccc(C[C@H](NC(=O)c4ccc(CCC)cc4)C(=O)N4CCC[C@H]4C(=O)O)cc3)nc2)cc1"
reported_measurement = "800 to 2500 nM"

[[record]]
molecule = "CC(C)(C)c1ccc(C(=O)N[C@@H](Cc2ccc(-c3ncc(-c4ccc([C@H]5CC[C@@H](C(F)(F)F)CC5)cc4)cn3)cc2)C(=O)N2CC(C(=O)O)C2)s1"
reported_measurement = "< 800 nM"


----------
Target: GLP-1R (Homo sapiens, UniProt P43220)
Construct: host or cells: GLP-1R CRE-bla CHO-K1 cells
Assay: EC20 GLP-1(9-36) PAM cAMP assay: dose response of compound in the presence of fixed concentration of GLP-1(9-36)
Format: cell-based
Details: dose response of compound in presence of fixed concentration of GLP-1(9-36), GLP-1R CRE-bla CHO-K1 cells, read-out: EC20 GLP-1(9-36) PAM EC50
# EC50 per record follows
Value type: EC50

[[record]]
compound = "CC(C)(C)c1ccc(C(=O)N[C@@H](Cc2ccc(-c3ncc(-c4ccc(-c5cccc(Cl)c5)cc4F)cn3)cc2)C(=O)N2CC(C(=O)O)C2)s1"
target = "GLP-1R (Homo sapiens, UniProt P43220)"
reported_measurement = "< 800 nM"

[[record]]
compound = "CCCCCCCOc1ccc(-c2cnc(-c3ccc(CC(NC(=O)c4ccc(C(C)(C)C)s4)C(=O)N[C@@H](Cc4ccc(O)cc4)C(=O)O)cc3)nc2)cc1 (stereo partly shown)"
target = "GLP-1R (Homo sapiens, UniProt P43220)"
reported_measurement = "800 to 2500 nM"

[[record]]
compound = "CCCCCCCOc1ccc(-c2cnc(-c3ccc(C[C@H](NC(=O)c4ccc(C(C)(C)C)s4)C(=O)N[C@@H](CN)C(=O)O)cc3)nc2)cc1"
target = "GLP-1R (Homo sapiens, UniProt P43220)"
reported_measurement = "2500 to 5000 nM"

[[record]]
compound = "CCCCCCCOc1ccc(-c2cnc(-c3ccc(C[C@H](NC(=O)c4ccc(C(C)C)s4)C(=O)N[C@H](C)C(=O)O)cc3)nc2)cc1"
target = "GLP-1R (Homo sapiens, UniProt P43220)"
reported_measurement = "800 to 2500 nM"

[[record]]
compound = "CCCCCCCOc1ccc(-c2cnc(-c3ccc(C[C@H](NC(=O)c4ccc(C(C)(C)C)cc4)C(=O)N[C@H](C)C(=O)O)cc3)nc2)cc1"
target = "GLP-1R (Homo sapiens, UniProt P43220)"
reported_measurement = "< 800 nM"

[[record]]
compound = "CCCCCCCOc1ccc(-c2cnc(-c3ccc(C[C@H](NC(=O)c4ccc(C(C)(C)CC)cc4)C(=O)N4CC[C@H](C(=O)O)C4)cc3)nc2)cc1"
target = "GLP-1R (Homo sapiens, UniProt P43220)"
reported_measurement = "2500 to 5000 nM"

[[record]]
compound = "CCCCCCCOc1ccc(-c2cnc(-c3ccc(C[C@@H](NC(=O)c4ccc(C(C)(C)C)cc4)C(=O)NCCC(=O)O)cc3)nc2)cc1"
target = "GLP-1R (Homo sapiens, UniProt P43220)"
reported_measurement = "2500 to 5000 nM"

[[record]]
compound = "CCCCCCCOc1ccc(-c2cnc(-c3ccc(C[C@H](NC(=O)c4ccc(C(C)(C)C)s4)C(=O)N[C@@H](CC(=O)OCc4ccccc4)C(=O)O)cc3)nc2)cc1"
target = "GLP-1R (Homo sapiens, UniProt P43220)"
reported_measurement = "< 800 nM"

[[record]]
compound = "CCCCCCCOc1ccc(-c2cnc(-c3ccc(C[C@H](NC(=O)c4ccc(C(C)(C)C)cc4)C(=O)NC(Cc4cccnc4)C(=O)O)cc3)nc2)cc1 (stereo partly shown)"
target = "GLP-1R (Homo sapiens, UniProt P43220)"
reported_measurement = "800 to 2500 nM"

[[record]]
compound = "CCCCCCCOc1ccc(-c2cnc(-c3ccc(C[C@H](NC(=O)c4ccc(C(C)(C)C)cc4)C(=O)NC(C(=O)O)c4cccs4)cc3)nc2)cc1 (stereo partly shown)"
target = "GLP-1R (Homo sapiens, UniProt P43220)"
reported_measurement = "< 800 nM"


----------
Target: GLP-1R (Homo sapiens, UniProt P43220)
Construct: host or cells: GLP-1R CRE-bla CHO-K1 cells
Test: EC20 GLP-1(9-36) PAM cAMP assay: dose response of compound in the presence of fixed concentration of GLP-1(9-36)
Type: cell-based
Details: dose response of compound in presence of fixed concentration of GLP-1(9-36), GLP-1R CRE-bla CHO-K1 cells, read-out: EC20 GLP-1(9-36) PAM EC50
Value type: EC50

[[record]]
compound = "CCCCCCCOc1ccc(-c2cnc(-c3ccc(C[C@H](NC(=O)c4ccc(C(C)(C)C)cc4)C(=O)NC(C(=O)O)C(O)c4ccccc4)cc3)nc2)cc1 (stereo partly shown) [Compound 570]"
target = "GLP-1R (Homo sapiens, UniProt P43220)"
reported_measurement = "< 0.8 µM"

[[record]]
compound = "CCCCCCCOc1ccc(-c2cnc(-c3ccc(C[C@H](NC(=O)c4ccc(C(C)(C)C)s4)C(=O)NC[C@@H](CO)C(=O)O)cc3)nc2)cc1"
target = "GLP-1R (Homo sapiens, UniProt P43220)"
reported_measurement = "0.8 to 2.5 µM"

[[record]]
compound = "CCCCCCCOc1ccc(-c2ccc(-c3ccc(C[C@H](NC(=O)c4ccc(C(C)(C)C)s4)C(=O)N[C@H](C)C(=O)O)cc3)nc2)cc1"
target = "GLP-1R (Homo sapiens, UniProt P43220)"
reported_measurement = "0.8 to 2.5 µM"

[[record]]
compound = "CCC/C=C/CCOc1ccc(-c2cnc(-c3ccc(C[C@H](NC(=O)c4ccc(C(C)(C)C)cc4)C(=O)NCCC(=O)O)cc3)nc2)cc1"
target = "GLP-1R (Homo sapiens, UniProt P43220)"
reported_measurement = "0.8 to 2.5 µM"


----------
Target: GLP-1R (Homo sapiens, UniProt P43220)
Construct: host or cells: GLP-1R CRE-bla CHO-K1 cells
Experiment: EC20 GLP-1(9-36) PAM cAMP assay: dose response of compound in the presence of fixed concentration of GLP-1(9-36)
Format: cell-based
Conditions: dose response of compound in presence of fixed concentration of GLP-1(9-36), GLP-1R CRE-bla CHO-K1 cells, read-out: EC20 GLP-1(9-36) PAM EC50
pEC50: −log10 of the molar value.
Value type: pEC50

[[record]]
molecule = "CCCCCCCOc1ccc(-c2cnc(-c3ccc(C[C@H](NC(=O)c4ccc(OCCC)cc4)C(=O)N4CC(C(=O)O)C4)cc3)nc2)cc1 [Compound 1105]"
value_type = "pEC50"
reported_measurement = "5.30 to 5.60"

[[record]]
molecule = "CCCCCCCOc1ccc(-c2cnc(-c3ccc(C[C@H](NC(=O)c4ccc(CC)cc4)C(=O)NC(C(=O)O)C(O)c4ccccc4)cc3)nc2)cc1 (some centres unmarked) [Compound 947]"
value_type = "pEC50"
reported_measurement = "5.60 to 6.10"

[[record]]
molecule = "CCCCOc1ccc(-c2cnc(-c3ccc(C[C@H](NC(=O)c4ccc(C(C)(C)C)cc4)C(=O)N[C@H](C)C(=O)O)cc3)nc2)cc1 [Compound 717]"
value_type = "pEC50"
reported_measurement = "5.60 to 6.10"

[[record]]
molecule = "CCCCCCCOc1ccc(-c2cnc(-c3ccc(C[C@H](NC(=O)c4ccc(C(C)(C)C)cc4)C(=O)N[C@@H](CCC(N)=O)C(=O)O)cc3)nc2)cc1 [Compound 399]"
value_type = "pEC50"
reported_measurement = "> 6.10"

[[record]]
molecule = "CCCCCCCOc1ccc(-c2cnc(-c3ccc(C[C@H](NC(=O)c4ccc(C(C)(C)C)s4)C(=O)N4CC[C@H](O)C4)cc3)nc2)cc1 [Compound 977]"
value_type = "pEC50"
reported_measurement = "5.00 to 5.30"

